# assayTarget: full-length human α1D-adrenoceptor (Homo sapiens)
# assayName: [3H]prazosin whole-cell competition binding, CHO-α1D cells
pIC50: −log10 of the molar value.
recordedEndpoint: pIC50

Challenge: Recorded pIC50 for COc1ccc2cccc(CCNC(C)=O)c2c1 [Agomelatine] with full-length human α1D-adrenoceptor (Homo sapiens), please?
Response given: < 4.50

###

# assayTarget: human α1A-adrenoceptor (Homo sapiens)
# Construct: CHO cells stably expressing either the full‐length human α1A, α1B, or α1D‐adrenoceptor
# Sequence (P35348 1-466): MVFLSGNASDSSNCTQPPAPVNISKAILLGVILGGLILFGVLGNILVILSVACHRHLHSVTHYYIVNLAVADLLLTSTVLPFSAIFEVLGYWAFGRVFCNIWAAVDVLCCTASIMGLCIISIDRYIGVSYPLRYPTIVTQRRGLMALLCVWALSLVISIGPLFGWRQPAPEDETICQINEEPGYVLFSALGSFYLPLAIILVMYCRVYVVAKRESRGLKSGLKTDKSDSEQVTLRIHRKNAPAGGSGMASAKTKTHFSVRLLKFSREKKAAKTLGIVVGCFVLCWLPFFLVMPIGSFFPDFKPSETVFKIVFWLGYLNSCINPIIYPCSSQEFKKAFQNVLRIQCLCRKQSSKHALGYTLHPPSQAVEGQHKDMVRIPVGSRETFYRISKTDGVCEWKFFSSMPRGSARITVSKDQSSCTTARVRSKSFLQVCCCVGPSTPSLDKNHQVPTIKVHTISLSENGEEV
# assayName: [3H]prazosin whole-cell competition binding, CHO-α1A cells
# testContext: ratio of KD values; printed under α1A = higher α1A affinity; 1.0 under vs = none
Please note: Selectivity ratio α1A vs α1B exactly at 20 fold is not satisfied. Only values below 20 fold get satisfied.

Challenge: Confirm or reject: Selectivity ratio α1A vs α1B of `CNCCCC1c2ccccc2C=Cc2ccccc21` lies strictly below 20 fold
Response given: satisfied

Challenge: Confirm or reject: Selectivity ratio α1A vs α1B of `OCCN1CCN(CCC=C2c3ccccc3Sc3ccc(C(F)(F)F)cc32)CC1` lies strictly below 20 fold
Response given: satisfied

Challenge: Confirm or reject: Selectivity ratio α1A vs α1B of `O=C(NC1CCN(CCc2c[nH]c3ccccc23)CC1)c1ccccc1` lies strictly below 20 fold
Response given: not satisfied

Challenge: Confirm or reject: Selectivity ratio α1A vs α1B of CC1c2ccccc2CN1CC1=NCCN1 (centres unmarked) lies strictly below 20 fold
Response given: satisfied

Challenge: Confirm or reject: Selectivity ratio α1A vs α1B of `ClCCN(Cc1ccccc1)Cc1ccccc1` lies strictly below 20 fold
Response given: not satisfied

Challenge: Confirm or reject: Selectivity ratio α1A vs α1B of `O=C1NCCN1CCN1CCC(c2cn(-c3ccc(F)cc3)c3ccc(Cl)cc23)CC1` lies strictly below 20 fold
Response given: satisfied

Challenge: Confirm or reject: Selectivity ratio α1A vs α1B of CCN1CCCC1CNC(=O)c1cc(S(N)(=O)=O)ccc1OC (centres unmarked) [Sulpiride] lies strictly below 20 fold
Response given: not satisfied

Challenge: Confirm or reject: Selectivity ratio α1A vs α1B of `Cc1ccc(Sc2ccccc2N2CCNCC2)c(C)c1` lies strictly below 20 fold
Response given: satisfied

Challenge: Confirm or reject: Selectivity ratio α1A vs α1B of COc1ccccc1N1CCN(CC(O)COc2cccc3ccccc23)CC1 (centres unmarked) lies strictly below 20 fold
Response given: satisfied

Challenge: Confirm or reject: Selectivity ratio α1A vs α1B of N=C(CC(O)COc1ccccc1-c1ccccc1)N1CCCCC1 (centres unmarked) [AH11110A] lies strictly below 20 fold
Response given: satisfied

Challenge: Confirm or reject: Selectivity ratio α1A vs α1B of `COc1cccc2c1CCC[C@H]2CN(C)CCc1ccc2ccoc2c1.CS(=O)(=O)O` lies strictly below 20 fold
Response given: satisfied

Challenge: Confirm or reject: Selectivity ratio α1A vs α1B of `Cc1c[nH]c(=O)n(CCCN2CCN(c3ccccc3OCC(F)(F)F)CC2)c1=O` lies strictly below 20 fold
Response given: not satisfied

Challenge: Confirm or reject: Selectivity ratio α1A vs α1B of `CNCCCN1c2ccccc2CCc2ccc(Cl)cc21` lies strictly below 20 fold
Response given: not satisfied

Challenge: Confirm or reject: Selectivity ratio α1A vs α1B of `COc1ccc(NC(=O)N2CCc3c2ccc2ccccc32)cc1N1CCN(C)CC1` lies strictly below 20 fold
Response given: satisfied

Challenge: Confirm or reject: Selectivity ratio α1A vs α1B of Cc1ccc(OCC(O)C(C)NC(C)C)c2c1CCC2 (centres unmarked) lies strictly below 20 fold
Response given: satisfied

Challenge: Confirm or reject: Selectivity ratio α1A vs α1B of CC(C)(Cc1c[nH]c2ccccc12)NCC(O)COc1ccccc1C#N (centres unmarked) lies strictly below 20 fold
Response given: satisfied

Challenge: Confirm or reject: Selectivity ratio α1A vs α1B of CCC1(C2=NCCN2)Cc2ccccc2O1 (centres unmarked) lies strictly below 20 fold
Response given: satisfied

###

# assayTarget: full-length human α1D-adrenoceptor (Homo sapiens, UniProt P25100)
# Sequence (P25100 whole entry): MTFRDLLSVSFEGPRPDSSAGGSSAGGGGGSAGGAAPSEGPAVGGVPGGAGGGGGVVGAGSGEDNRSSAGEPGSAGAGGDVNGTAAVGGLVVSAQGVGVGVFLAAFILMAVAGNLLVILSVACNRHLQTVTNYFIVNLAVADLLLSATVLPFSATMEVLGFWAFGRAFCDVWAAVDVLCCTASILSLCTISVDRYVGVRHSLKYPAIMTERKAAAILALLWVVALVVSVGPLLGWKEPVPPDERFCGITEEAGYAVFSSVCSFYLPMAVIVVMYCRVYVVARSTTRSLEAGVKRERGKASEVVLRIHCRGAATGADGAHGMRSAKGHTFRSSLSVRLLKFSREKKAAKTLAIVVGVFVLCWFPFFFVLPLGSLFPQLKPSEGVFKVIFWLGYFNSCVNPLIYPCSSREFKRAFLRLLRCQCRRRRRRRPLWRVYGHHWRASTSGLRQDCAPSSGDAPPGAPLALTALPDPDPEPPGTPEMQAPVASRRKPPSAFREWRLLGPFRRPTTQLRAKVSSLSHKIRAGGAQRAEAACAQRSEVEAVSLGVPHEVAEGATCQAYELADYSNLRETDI
# assayName: [3H]prazosin whole-cell competition binding, CHO-α1D cells
# testContext: low-affinity component of two-component curve; control
recordedEndpoint: Log KD α1D site 2
Just the number, please, no unit after it.

Challenge: So what's the measured Log KD α1D site 2 for this one? COc1cccc(OC)c1OCCNCC1CSc2ccccc2O1 (centres unmarked)
Response given: −5.62

Challenge: So what's the measured Log KD α1D site 2 for this one? O=C1NCN(c2ccccc2)C12CCN(CC1COc3ccccc3O1)CC2 (centres unmarked)
Response given: −5.84

Challenge: So what's the measured Log KD α1D site 2 for this one? O=C1c2ccccc2CCC1CNCCc1ccc(O)cc1 (centres unmarked)
Response given: −5.15

Challenge: So what's the measured Log KD α1D site 2 for this one? COc1cc2nc(N3CCN(C(=O)c4ccco4)[C@H]4CCCC[C@H]43)nc(N)c2cc1OC (racemic)
Response given: −7.44

Challenge: So what's the measured Log KD α1D site 2 for this one? CC(C(O)c1ccc(O)cc1)N1CCC(Cc2ccccc2)CC1 (centres unmarked)
Response given: −6.05

Challenge: So what's the measured Log KD α1D site 2 for this one? `Cc1c[nH]c(=O)n(CCCN2CCN(c3ccccc3OCC(F)(F)F)CC2)c1=O`
Response given: −5.13

Challenge: So what's the measured Log KD α1D site 2 for this one? `OCCN1CCN(CCCN2c3ccccc3Sc3ccc(Cl)cc32)CC1`
Response given: −6.03

Challenge: So what's the measured Log KD α1D site 2 for this one? CC(COc1ccccc1)N(CCCl)Cc1ccccc1 (centres unmarked)
Response given: −5.42

Challenge: So what's the measured Log KD α1D site 2 for this one? `O=C1[C@@H]2[C@H]3CC[C@H](C3)[C@@H]2C(=O)N1C[C@@H]1CCCC[C@H]1CN1CCN(c2nsc3ccccc23)CC1`
Response given: −5.92

Challenge: So what's the measured Log KD α1D site 2 for this one? `CN1CC[C@]2(CCN3CCc4c(oc5ccccc45)[C@@H]3C2)N(C)C1=O.Cl`
Response given: −5.50

Challenge: So what's the measured Log KD α1D site 2 for this one? `ClCCN(Cc1ccccc1)Cc1ccccc1`
Response given: −5.00

###

# assayTarget: human α1B-adrenoceptor (Homo sapiens, UniProt P35368)
# Construct: CHO cells stably expressing either the full‐length human α1A, α1B, or α1D‐adrenoceptor
# Sequence (P35368 whole entry): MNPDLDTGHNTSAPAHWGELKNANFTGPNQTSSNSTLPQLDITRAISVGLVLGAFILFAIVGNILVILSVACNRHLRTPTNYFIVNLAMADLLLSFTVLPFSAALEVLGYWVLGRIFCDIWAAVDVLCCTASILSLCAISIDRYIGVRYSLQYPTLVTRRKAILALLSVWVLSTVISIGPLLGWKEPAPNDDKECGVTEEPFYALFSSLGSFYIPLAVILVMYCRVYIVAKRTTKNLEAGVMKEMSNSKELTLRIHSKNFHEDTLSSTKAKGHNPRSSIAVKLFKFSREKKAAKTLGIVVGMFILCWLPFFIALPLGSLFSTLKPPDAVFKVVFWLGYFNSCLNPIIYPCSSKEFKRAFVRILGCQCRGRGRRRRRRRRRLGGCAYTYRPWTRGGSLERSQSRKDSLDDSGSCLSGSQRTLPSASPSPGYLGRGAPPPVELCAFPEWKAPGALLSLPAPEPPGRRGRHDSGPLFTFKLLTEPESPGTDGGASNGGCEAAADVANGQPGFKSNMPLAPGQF
# assayName: [3H]prazosin whole-cell competition binding, CHO-α1B cells
recordedEndpoint: pKd
Just the number, please; pKd means minus log10 of the concentration in mol/L.

Challenge: So what's the measured pKd for this one? `CN1CCc2cccc(Cl)c2CC1`
Response given: 4.93

###

# assayTarget: human α1A-adrenoceptor (Homo sapiens)
# Construct: CHO cells stably expressing either the full‐length human α1A, α1B, or α1D‐adrenoceptor
# Sequence (P35348 1-466): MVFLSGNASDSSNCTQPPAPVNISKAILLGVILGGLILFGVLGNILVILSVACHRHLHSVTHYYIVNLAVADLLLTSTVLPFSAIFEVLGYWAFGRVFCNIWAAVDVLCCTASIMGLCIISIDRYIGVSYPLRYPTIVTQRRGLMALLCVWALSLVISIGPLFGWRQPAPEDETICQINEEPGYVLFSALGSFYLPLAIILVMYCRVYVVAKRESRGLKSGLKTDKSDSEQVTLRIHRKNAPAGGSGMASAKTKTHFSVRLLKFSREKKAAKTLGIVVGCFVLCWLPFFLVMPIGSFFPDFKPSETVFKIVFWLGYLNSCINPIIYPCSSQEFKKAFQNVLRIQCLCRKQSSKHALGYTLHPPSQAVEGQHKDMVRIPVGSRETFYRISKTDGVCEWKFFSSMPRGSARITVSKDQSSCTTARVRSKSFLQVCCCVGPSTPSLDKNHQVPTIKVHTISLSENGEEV
# assayName: [3H]prazosin whole-cell competition binding, CHO-α1A cells
# testContext: ratio of KD values; higher α1A affinity; 1.0 under vs = none
Kindly supply the reported Selectivity ratio α1A vs α1D values for the records listed here.
Please give a number only; it is taken to be in fold.

Challenge: So what's the measured Selectivity ratio α1A vs α1D for this one? CC(C)(Cc1c[nH]c2ccccc12)NCC(O)COc1ccccc1C#N (stereo not drawn)
Response given: 13

Challenge: So what's the measured Selectivity ratio α1A vs α1D for this one? O=C1CCC(=O)N1C[C@H]1CC[C@H]2CN(c3ncccn3)CCN2C1 [Sunepitron]
Response given: 2.8

Challenge: So what's the measured Selectivity ratio α1A vs α1D for this one? CC(C(O)c1ccc(O)cc1)N1CCC(Cc2ccccc2)CC1 (stereo not drawn)
Response given: 2.9

Challenge: So what's the measured Selectivity ratio α1A vs α1D for this one? `CN(CCCN1c2ccccc2CCc2ccccc21)CC(=O)c1ccc(Cl)cc1`
Response given: 37

Challenge: So what's the measured Selectivity ratio α1A vs α1D for this one? `O=C(NC1CCN(CCc2c[nH]c3ccccc23)CC1)c1ccccc1`
Response given: 138

Challenge: So what's the measured Selectivity ratio α1A vs α1D for this one? Cc1ccc(OCC(O)C(C)NC(C)C)c2c1CCC2 (stereo not drawn)
Response given: 1.9

Challenge: So what's the measured Selectivity ratio α1A vs α1D for this one? CC(C)(C)NCC(O)COc1cccc2[nH]c(C#N)cc12 (stereo not drawn)
Response given: 1.5

Challenge: So what's the measured Selectivity ratio α1A vs α1D for this one? `OCCN1CCN(CCC=C2c3ccccc3Sc3ccc(C(F)(F)F)cc32)CC1`
Response given: 25

Challenge: So what's the measured Selectivity ratio α1A vs α1D for this one? `CNCCCC1c2ccccc2C=Cc2ccccc21`
Response given: 16

Challenge: So what's the measured Selectivity ratio α1A vs α1D for this one? CC1c2ccccc2CN1CC1=NCCN1 (stereo not drawn)
Response given: 7.2

Challenge: So what's the measured Selectivity ratio α1A vs α1D for this one? `COc1ccc(NC(=O)N2CCc3c2ccc2ccccc32)cc1N1CCN(C)CC1`
Response given: 1.6

Challenge: So what's the measured Selectivity ratio α1A vs α1D for this one? `COc1cccc2c1CCC[C@H]2CN(C)CCc1ccc2ccoc2c1.CS(=O)(=O)O`
Response given: 3.1

Where these numbers come from: paper PMC7327383
